- Target Desc: hERG (KCNH2) (Homo sapiens, UniProt Q12809)
- Sequence (Q12809 whole entry): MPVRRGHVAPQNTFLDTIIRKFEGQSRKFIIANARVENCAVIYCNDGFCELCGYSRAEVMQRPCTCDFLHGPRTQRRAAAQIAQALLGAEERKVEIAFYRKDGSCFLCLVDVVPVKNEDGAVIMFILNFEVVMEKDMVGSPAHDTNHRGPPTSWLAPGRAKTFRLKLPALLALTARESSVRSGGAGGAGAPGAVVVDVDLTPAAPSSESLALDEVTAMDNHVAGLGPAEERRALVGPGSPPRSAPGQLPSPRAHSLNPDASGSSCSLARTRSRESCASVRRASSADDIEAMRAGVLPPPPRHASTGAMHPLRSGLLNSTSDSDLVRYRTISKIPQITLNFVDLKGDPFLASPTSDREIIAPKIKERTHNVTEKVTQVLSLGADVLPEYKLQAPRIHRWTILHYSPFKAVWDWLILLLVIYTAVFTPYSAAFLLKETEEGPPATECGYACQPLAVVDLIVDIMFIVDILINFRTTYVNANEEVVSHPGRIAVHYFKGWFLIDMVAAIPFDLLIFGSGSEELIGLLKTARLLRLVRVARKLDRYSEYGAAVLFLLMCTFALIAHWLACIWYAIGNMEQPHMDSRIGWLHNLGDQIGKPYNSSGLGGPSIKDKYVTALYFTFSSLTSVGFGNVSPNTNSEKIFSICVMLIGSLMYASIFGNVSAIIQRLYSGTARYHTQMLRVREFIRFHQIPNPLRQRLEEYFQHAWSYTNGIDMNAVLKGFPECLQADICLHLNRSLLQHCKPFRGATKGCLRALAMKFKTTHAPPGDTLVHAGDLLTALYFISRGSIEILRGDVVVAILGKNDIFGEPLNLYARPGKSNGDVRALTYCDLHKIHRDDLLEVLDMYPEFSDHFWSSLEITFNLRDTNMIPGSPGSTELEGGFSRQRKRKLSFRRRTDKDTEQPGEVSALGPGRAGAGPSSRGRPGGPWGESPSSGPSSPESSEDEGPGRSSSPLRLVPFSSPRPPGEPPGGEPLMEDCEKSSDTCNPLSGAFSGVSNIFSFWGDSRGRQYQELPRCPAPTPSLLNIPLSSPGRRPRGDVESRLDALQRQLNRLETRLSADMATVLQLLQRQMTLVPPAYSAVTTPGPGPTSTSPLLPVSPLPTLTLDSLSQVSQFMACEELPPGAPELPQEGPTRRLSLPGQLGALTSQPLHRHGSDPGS
- Experimental Details: Inhibition of hERG potassium channel expressed in CHO cells by whole cell patch clamp method at 10 uM
- Assay type: toxicity, cell-based
- Test Settings: CHO cells expressing hERG
Measure: inhibition at 10 µM (%)
Give bare numbers, in %.

Quick one: give measured inhibition at 10 µM for CCO[C@@H](C)c1ccc2c(n1)N1[C@@H](CNC[C@H]1C)C2
20

---

Provide the reported pKi of each item.
- Target Desc: 5-hydroxytryptamine receptor 2B (Homo sapiens)
- Sequence (P41595 whole entry): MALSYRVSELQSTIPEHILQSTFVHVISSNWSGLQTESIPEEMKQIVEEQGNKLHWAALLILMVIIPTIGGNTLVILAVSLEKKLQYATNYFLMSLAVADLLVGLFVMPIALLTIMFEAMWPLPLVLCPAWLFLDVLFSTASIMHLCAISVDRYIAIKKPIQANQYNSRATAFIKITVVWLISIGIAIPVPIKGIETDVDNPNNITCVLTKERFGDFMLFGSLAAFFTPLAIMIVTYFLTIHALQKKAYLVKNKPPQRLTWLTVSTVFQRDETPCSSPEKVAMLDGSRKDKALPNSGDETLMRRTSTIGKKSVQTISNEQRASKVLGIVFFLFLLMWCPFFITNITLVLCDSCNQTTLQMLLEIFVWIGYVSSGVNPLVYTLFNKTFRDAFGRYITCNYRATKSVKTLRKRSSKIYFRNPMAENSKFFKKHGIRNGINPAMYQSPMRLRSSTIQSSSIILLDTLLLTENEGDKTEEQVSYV
- Experimental Details: Displacement of [3H]5HT from human recombinant 5HT2B receptor expressed in CHO cells
One number for each entry, as −log10 of the molar value.

{"columns": ["Molecule", "Target Desc", "pKi"],
 "data": [
  ["Cc1c(Cl)ccc2c1N1[C@H](CNC[C@H]1C)C2", "5-hydroxytryptamine receptor 2B (Homo sapiens)", 7.40],
  ["CCO[C@H](C)c1ccc2c(n1)N1[C@@H](CNC[C@H]1C)C2", "5-hydroxytryptamine receptor 2B (Homo sapiens)", 5.88],
  ["C[C@H](O)c1ccc2c(n1)N1[C@@H](CNC[C@H]1C)C2", "5-hydroxytryptamine receptor 2B (Homo sapiens)", 6.08],
  ["C[C@@H]1CNC[C@@H]2Cc3ccc(Br)nc3N21", "5-hydroxytryptamine receptor 2B (Homo sapiens)", 6.78],
  ["C[C@@H]1CNC[C@H]2Cc3ccc(C#N)nc3N21", "5-hydroxytryptamine receptor 2B (Homo sapiens)", 5.74],
  ["CCO[C@@H](C)c1ccc2c(n1)N1[C@@H](CNC[C@H]1C)C2", "5-hydroxytryptamine receptor 2B (Homo sapiens)", 6.53],
  ["C[C@@H]1CNC[C@H]2Cc3ccc(Br)nc3N21", "5-hydroxytryptamine receptor 2B (Homo sapiens)", 7.09],
  ["Clc1ccc2c(n1)N1CCNCC1C2 (stereo not given)", "5-hydroxytryptamine receptor 2B (Homo sapiens)", 6.66]
]}

Batch lookup, pKi per entry.
1. C[C@@H]1CNC[C@@H]2Cc3ccc(Cl)nc3N21
2. C[C@@H]1CNC[C@H]2Cc3ccc(Cl)nc3N21

1. 6.66
2. 7.32
